Test: in vitro
Type: in vitro ADME
Settings: human, plasma
Bridge positions count the residues as written; N and C are the ends. Square brackets hold non-standard residues; d marks the D form. Peptide text beside a SMILES is read from it. Cit = NC(=O)NCCC[C@H](N)C(=O)O
valueKind: half-life at 10 μM (h)
Just the number please, in h, no unit attached.

>>> recordednumber("N=C(N)NCCC[C@@H]1NC(=O)[C@@H]2CSSC[C@H](NC(=O)[C@H](Cc3c[nH]c4ccccc34)NC(=O)[C@H](CCCNC(=N)N)NC(=O)[C@H](CCCNC(=N)N)NC(=O)[C@H]3CCCN3C(=O)CNC1=O)C(=O)N[C@@H](Cc1ccc(O)cc1)C(=O)N[C@@H](CCCNC(N)=O)C(=O)N[C@@H](CC(=O)O)C(=O)N1CCC[C@@H]1C(=O)N1CCC[C@H]1C(=O)N[C@@H](Cc1ccc(O)cc1)C(=O)N[C@@H](CCCNC(=N)N)C(=O)N[C@@H](CO)C(=O)N2 [Ex. 102] (cyclo(YRSCRG[dP]RRWCY[Cit]D[dP]P); disulfide 4-11)")
4.25

// moving on: another record for half-life at 10 μM
Input line: // half-life at 10 μM lookup, key: N=C(N)NCCC[C@@H]1NC(=O)[C@H](CO)NC(=O)[C@H](CCCNC(N)=O)NC(=O)[C@H](CCCNC(=N)N)NC(=O)[C@H](Cc2ccc(O)cc2)NC(=O)[C@@H]2CCCN2C(=O)[C@H]2CCCN2C(=O)[C@H](CCCCN)NC(=O)[C@H](CCCNC(N)=O)NC(=O)[C@H](Cc2ccc(O)cc2)NC(=O)[C@H](CC(N)=O)NC(=O)[C@H](Cc2c[nH]c3ccccc23)NC(=O)[C@H](CCCNC(=N)N)NC(=O)[C@H](CCCNC(=N)N)NC(=O)[C@H]2CCCN2C(=O)CNC1=O [Ex. 151] (cyclo(YR[Cit]SRG[dP]RRWNY[Cit]K[dP]P))
Output line: 1.48

* * *

Assay: in vitro
Settings: human
Bridge positions count the residues as written; N and C are the ends. Square brackets hold non-standard residues; d marks the D form. Peptide text beside a SMILES is read from it. 2Nal = N[C@@H](Cc1ccc2ccccc2c1)C(=O)O; Cit = NC(=O)NCCC[C@H](N)C(=O)O
valueKind: GI50 at 48 h (µM)
Just the number please, in µM, no unit attached.

Before answering, review these 4 worked examples.
>>> recordednumber("N=C(N)NCCC[C@@H]1NC(=O)[C@@H]2CSSC[C@H](NC(=O)[C@H](Cc3ccc4ccccc4c3)NC(=O)[C@H](CCCNC(=N)N)NC(=O)[C@H](CCCNC(=N)N)NC(=O)[C@H]3CCCN3C(=O)CNC1=O)C(=O)N[C@@H](Cc1ccc(O)cc1)C(=O)N[C@@H](CC(=O)O)C(=O)N[C@@H](CCCCN)C(=O)N1CCC[C@@H]1C(=O)N1CCC[C@H]1C(=O)N[C@@H](Cc1ccc(O)cc1)C(=O)N[C@@H](CCCNC(=N)N)C(=O)N[C@@H](CCCNC(N)=O)C(=O)N2 [Ex. 78] (cyclo(YR[Cit]CRG[dP]RR[2Nal]CYDK[dP]P); disulfide 4-11)")
69
>>> recordednumber("N=C(N)NCCC[C@@H]1NC(=O)[C@@H]2CSSC[C@H](NC(=O)[C@H](Cc3ccc4ccccc4c3)NC(=O)[C@H](CCCNC(=N)N)NC(=O)[C@H](CCCNC(=N)N)NC(=O)[C@H]3CCCN3C(=O)CNC1=O)C(=O)N[C@@H](Cc1ccc(O)cc1)C(=O)N[C@@H](CCC(N)=O)C(=O)N[C@@H](CCCCN)C(=O)N1CCC[C@@H]1C(=O)N1CCC[C@H]1C(=O)N[C@@H](Cc1ccc(O)cc1)C(=O)N[C@@H](CCCNC(=N)N)C(=O)N[C@@H](Cc1ccc(O)cc1)C(=O)N2 [Ex. 72] (cyclo(YRYCRG[dP]RR[2Nal]CYQK[dP]P); disulfide 4-11)")
36
>>> recordednumber("CC(C)[C@@H]1NC(=O)[C@@H]2CCCN2C(=O)[C@H]2CCCN2C(=O)[C@H](CCCCN)NC(=O)[C@H](CCC(N)=O)NC(=O)[C@H](Cc2ccc(O)cc2)NC(=O)[C@@H]2CSSC[C@H](NC(=O)[C@H](CCCNC(N)=O)NC(=O)[C@H](CCCNC(=N)N)NC1=O)C(=O)N[C@@H](CCCNC(=N)N)C(=O)NCC(=O)N1CCC[C@@H]1C(=O)N[C@@H](CCCNC(=N)N)C(=O)N[C@@H](CCCNC(=N)N)C(=O)N[C@@H](Cc1ccc3ccccc3c1)C(=O)N2 [Ex. 90] (cyclo(VR[Cit]CRG[dP]RR[2Nal]CYQK[dP]P); disulfide 4-11)")
57
>>> recordednumber("C[C@@H]1NC(=O)[C@H](CCC(N)=O)NC(=O)[C@H](Cc2ccc(O)cc2)NC(=O)[C@@H]2CSSC[C@H](NC(=O)[C@H](CCCNC(N)=O)NC(=O)[C@H](CCCNC(=N)N)NC(=O)[C@H](Cc3ccc(O)cc3)NC(=O)[C@@H]3CCCN3C(=O)[C@H]3CCCN3C1=O)C(=O)N[C@@H](CCCNC(=N)N)C(=O)NCC(=O)N1CCC[C@@H]1C(=O)N[C@@H](CCCNC(=N)N)C(=O)N[C@@H](CCCNC(=N)N)C(=O)N[C@@H](Cc1ccc3ccccc3c1)C(=O)N2 [Ex. 86] (cyclo(YR[Cit]CRG[dP]RR[2Nal]CYQA[dP]P); disulfide 4-11)")
62

Input line: // GI50 at 48 h lookup, key: N=C(N)NCCC[C@@H]1NC(=O)[C@@H]2CSSC[C@H](NC(=O)[C@H](Cc3ccc4ccccc4c3)NC(=O)[C@H](CCCNC(=N)N)NC(=O)[C@H](CCCNC(=N)N)NC(=O)[C@H]3CCCN3C(=O)CNC1=O)C(=O)N[C@@H](Cc1ccc(O)cc1)C(=O)N[C@@H](CCC(N)=O)C(=O)N[C@@H](CCCCN)C(=O)N1CCC[C@@H]1C(=O)N1CCC[C@H]1C(=O)N[C@@H](CC(=O)O)C(=O)N[C@@H](CCCNC(=N)N)C(=O)N[C@@H](CCCNC(N)=O)C(=O)N2 [Ex. 88] (cyclo(DR[Cit]CRG[dP]RR[2Nal]CYQK[dP]P); disulfide 4-11)
Output line: 44

Input line: // GI50 at 48 h lookup, key: N=C(N)NCCC[C@@H]1NC(=O)[C@@H]2CSSC[C@H](NC(=O)[C@H](Cc3ccc4ccccc4c3)NC(=O)[C@H](CCCNC(=N)N)NC(=O)[C@H](CCCNC(=N)N)NC(=O)[C@H]3CCCN3C(=O)CNC1=O)C(=O)N[C@@H](Cc1ccc(O)cc1)C(=O)N[C@@H](CCC(N)=O)C(=O)N[C@@H](CCCCN)C(=O)N1CCC[C@@H]1C(=O)N1CCC[C@H]1C(=O)N[C@@H](Cc1c[nH]cn1)C(=O)N[C@@H](CCCNC(=N)N)C(=O)N[C@@H](CCCNC(N)=O)C(=O)N2 [Ex. 64] (cyclo(HR[Cit]CRG[dP]RR[2Nal]CYQK[dP]P); disulfide 4-11)
Output line: 66

Input line: // GI50 at 48 h lookup, key: N=C(N)NCCC[C@@H]1NC(=O)[C@@H]2CSSC[C@H](NC(=O)[C@H](Cc3c[nH]c4ccccc34)NC(=O)[C@H](CCCNC(=N)N)NC(=O)[C@H](CCCNC(=N)N)NC(=O)[C@H]3CCCN3C(=O)CNC1=O)C(=O)N[C@@H](Cc1ccc(O)cc1)C(=O)N[C@@H](CCCNC(N)=O)C(=O)N[C@@H](CCCCN)C(=O)N1CCC[C@@H]1C(=O)N1CCC[C@H]1C(=O)N[C@@H](Cc1ccc(O)cc1)C(=O)N[C@@H](CCCNC(=N)N)C(=O)N[C@@H](CCCNC(N)=O)C(=O)N2 [Ex. 123] (cyclo(YR[Cit]CRG[dP]RRWCY[Cit]K[dP]P); disulfide 4-11)
Output line: 80

Input line: // GI50 at 48 h lookup, key: N=C(N)NCCC[C@@H]1NC(=O)[C@@H]2CSSC[C@H](NC(=O)[C@H](Cc3ccc4ccccc4c3)NC(=O)[C@H](CCCNC(=N)N)NC(=O)[C@H](CCCNC(=N)N)NC(=O)[C@H]3CCCN3C(=O)CNC1=O)C(=O)N[C@@H](Cc1ccc(O)cc1)C(=O)N[C@@H](Cc1ccc(O)cc1)C(=O)N[C@@H](CCCCN)C(=O)N1CCC[C@@H]1C(=O)N1CCC[C@H]1C(=O)N[C@@H](Cc1ccc(O)cc1)C(=O)N[C@@H](CCCNC(=N)N)C(=O)N[C@@H](CCCNC(N)=O)C(=O)N2 [Ex. 59] (cyclo(YR[Cit]CRG[dP]RR[2Nal]CYYK[dP]P); disulfide 4-11)
Output line: 33

* * *

Target: CXCR4 (Homo sapiens, UniProt P61073)
Sequence (P61073 whole entry): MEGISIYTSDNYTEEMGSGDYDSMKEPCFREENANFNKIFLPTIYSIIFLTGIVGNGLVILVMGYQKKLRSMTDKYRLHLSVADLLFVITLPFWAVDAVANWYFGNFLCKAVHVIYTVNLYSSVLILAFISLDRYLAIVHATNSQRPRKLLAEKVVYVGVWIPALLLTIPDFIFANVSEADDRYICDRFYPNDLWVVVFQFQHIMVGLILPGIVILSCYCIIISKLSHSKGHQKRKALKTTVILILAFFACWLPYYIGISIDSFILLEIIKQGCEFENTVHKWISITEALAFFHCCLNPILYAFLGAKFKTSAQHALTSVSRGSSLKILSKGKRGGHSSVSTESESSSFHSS
Assay: Ca2+-assay method 2 (Flexstation, SDF-1 induced calcium mobilization)
Format: cell-based
Parameters: expressed in transfected cells; host or cells: mouse pre-B cell line 300-19
Conditions: method 2 (Ex. 54-160), mouse pre-B cell line 300-19 with human CXCR4, 10 nM SDF-1; read-out: IC50 (nM) Ca^2+ assay
Bridge positions count the residues as written; N and C are the ends. Square brackets hold non-standard residues; d marks the D form. Peptide text beside a SMILES is read from it. Cit = NC(=O)NCCC[C@H](N)C(=O)O; Dab = NCC[C@H](N)C(=O)O
valueKind: IC50 (nM)
Just the number please, in nM, no unit attached.

>>> recordednumber("N=C(N)NCCC[C@@H]1NC(=O)[C@@H]2CSSC[C@H](NC(=O)[C@H](Cc3c[nH]c4ccccc34)NC(=O)[C@H](CCCNC(=N)N)NC(=O)[C@H](CCN)NC(=O)[C@H]3CCCN3C(=O)CNC1=O)C(=O)N[C@@H](Cc1ccc(O)cc1)C(=O)N[C@@H](CCC(N)=O)C(=O)N[C@@H](CCCCN)C(=O)N1CCC[C@@H]1C(=O)N1CCC[C@H]1C(=O)N[C@@H](Cc1ccc(O)cc1)C(=O)N[C@@H](CCCNC(=N)N)C(=O)N[C@@H](CCCNC(N)=O)C(=O)N2 [Ex. 109] (cyclo(YR[Cit]CRG[dP][Dab]RWCYQK[dP]P); disulfide 4-11)")
3

// moving on: another record for IC50
Input line: // IC50 lookup, key: N=C(N)NCCC[C@@H]1NC(=O)[C@@H]2CSSC[C@H](NC(=O)[C@H](Cc3c[nH]c4ccccc34)NC(=O)[C@H](CCCNC(=N)N)NC(=O)[C@H](CCCNC(=N)N)NC(=O)[C@H]3CCCN3C(=O)CNC1=O)C(=O)N[C@@H](Cc1ccc(O)cc1)C(=O)N[C@@H](CCCNC(N)=O)C(=O)N[C@@H](CCCCN)C(=O)N1CCC[C@@H]1C(=O)N1CCC[C@H]1C(=O)N[C@@H](Cc1ccc(O)cc1)C(=O)N[C@@H](CCCCN)C(=O)N[C@@H](CCCNC(N)=O)C(=O)N2 [Ex. 106] (cyclo(YK[Cit]CRG[dP]RRWCY[Cit]K[dP]P); disulfide 4-11)
Output line: 3.1

The values you see were collected from patent US8895695B2.
